System: Plasmodium berghei
PROTOCOL TEXT: Screen against P. berghei liver stage (PbLuc), transformed with Luciferase, at 2uM
Format: functional, HepG2
DETAILS: tested at 2 uM
Out of some 68,000 compounds screened, about 2,700 (4%) showed an effect of 50% or more. For the sample, strong results were picked, then their nearest neighbours and some compounds at random.
ENDPOINT NAME: INHIBITION
Please provide the amount together with its unit, number first.

Field: example entries. Status: answers known.
>>> df
                                   molecule  data_value
0  CN(C)C(=O)CN1C[C@H]2CC[C@@H](C1)N(Cc1c(Cl)cncc1Cl)C2      69.67%
1        CN1CCN(c2cnn(CCn3cccn3)c(=O)c2)CC1      26.14%

For each of the items listed, what is its INHIBITION?
1. CN1CCc2c(C#N)c(NCCc3ccccc3)n3cnnc3c2C1
2. Cc1nnc(N2CCC(CN(C)C(C)C)CC2)c(C#N)c1C
3. Cc1cccn2cc(CC(=O)N3CCCC(n4cncn4)C3)nc12 (stereo unspecified)
4. Cc1nc(N2CCOCC2)nc2c1CCN(Cc1nccn1C)CC2
5. COCCN1CCN(C(=O)c2ccc(C)cc2F)[C@H]2CS(=O)(=O)C[C@H]21
6. Cc1nnc(N2CCC(CS(N)(=O)=O)CC2)c(C#N)c1C
7. c1cnc(N2CC3(CCN(C4CCOCC4)CC3)c3ccccc32)nc1

RESULT:
1. -30.35%
2. 2.1%
3. -45.23%
4. 13.25%
5. 32.26%
6. 46.52%
7. -23.45%

For each of the items listed, what is its INHIBITION?
1. O=C(NC1CCC1)c1n[nH]c2c1CNCC2
2. CCc1nnc(SCc2nonc2C)n1C1CC1

RESULT:
["-29.3%", "-11.87%"]

###

Tested on: Plasmodium berghei
PROTOCOL TEXT: Screen against P. berghei liver stage (PbLuc), transformed with Luciferase, at 2uM
Type: functional, HepG2
DETAILS: tested at 2 uM
Hit rate of the full screen: of about 68,000 compounds, about 2,700 (4%) showed an effect of 50% or more. The list comes from a sample in which strong results are over-represented; it also holds close analogues and randomly drawn compounds.
ENDPOINT NAME: INHIBITION (%)
One number for each entry, in %.

Field: example entries. Status: answers known.
In [3]: df
Out[3]:
                                   compound  data_value
0      c1cncc(-c2noc(C3CN(Cc4cccs4)C3)n2)c1       51.71
1  COc1cc(C)c(S(=O)(=O)CC(=O)N(C)C2CC2)cc1OC       51.87

For each of the items listed, what is its INHIBITION?
1. O=C([C@H]1C[C@H]2OCC[C@H]2N(CC2CCOCC2)C1)N1CCCC1
2. c1csc(CN2CC(c3nc(-c4cnccn4)no3)C2)c1

RESULT:
1. 58.93
2. 26.54

For each of the items listed, what is its INHIBITION?
1. O=C1N[C@@H]2CCN(C(=O)C3CC3)[C@@H]2C(=O)N1c1ccc(F)cc1
2. CCC(C)c1cc(C(=O)N(CC(=O)NC)c2cccc(F)c2)on1 (centres undefined)
3. CC(C)N(C)CCC(=O)N1CCCC(c2ccc(C(=O)O)cc2)C1 (centres undefined)
4. CC(C)CN1C[C@@H]2C(=O)NC3(CCN(C(=O)c4cccnc4)CC3)[C@@H]2C1
5. COCCN1CCC(Cc2cnc(-c3ccccc3C(=O)O)cn2)CC1
6. O=C1CC2(CCCNC2)C(=O)N1Cc1ccc(Cl)cc1 (centres undefined)

RESULT:
1: 34.24; 2: -7.58; 3: -1.98; 4: 14.47; 5: 20.44; 6: -59.66

For each of the items listed, what is its INHIBITION?
1. O=C([C@H]1C[C@H]2OCC[C@H]2N(CC2CCOCC2)C1)N1CCCCO1
2. O=C(NCC1(CO)CC1)c1ccccc1C(F)(F)F
3. COc1cccc(CN2CCc3nc4ccsc4c(=O)n3CC2)c1
4. CC[C@@H](c1ccccc1)n1c(C2CC2)n[nH]c1=O
5. Cc1ccc(C)c(NC(=O)Cn2nc(C)c(C#N)c2N)c1

RESULT:
1. 26.31
2. -41.99
3. 34.9
4. 43.05
5. -15.17

For each of the items listed, what is its INHIBITION?
1. C[C@H](c1ccc(Cl)cc1)n1c(C2CC2)n[nH]c1=O
2. Cc1nc(CN2C[C@@H]3COC[C@]3(COCC(=O)N(C)C)C2)cs1

RESULT:
1: 62.51; 2: 23.09
